# measurement_description: Solubility measurements in biorelevant media (24 h shake, HPLC)
# Type: physicochemical
# assay_conditions: FaSSIF (fasted state simulated intestinal fluid), pH 6.5, thermodynamic from solid, FaSSIF, pH of medium 6.5, 37 °C
endpoint: solubility at 24 h (µg/mL)
Supply the numeric figure in µg/mL, leaving out any unit text.

**Query** Dear colleague, I am looking for the recorded solubility at 24 h of the following molecule: COc1ccc([C@@H](O)c2cc(-c3ncnc4cc(N5CCOCC5)ccc34)c(F)cc2Cl)nn1 [Form I]
**Result** 3

* * *

# measurement_description: Solubility measurements in biorelevant media (24 h shake, HPLC)
# Assay type: physicochemical
# assay_conditions: FeSSIF (fed state simulated intestinal fluid), pH 5, thermodynamic from solid, FeSSIF, pH of medium 5.0, 37 °C
endpoint: solubility at 24 h
Be sure to follow the number with its unit.

**Query** Please report the recorded solubility at 24 h for COc1ccc([C@@H](O)c2cc(-c3ncnc4cc(N5CCOCC5)ccc34)c(F)cc2Cl)nn1 [Form I] .
**Result** 17 µg/mL
